Every entry's value here was drawn from ChEMBL document CHEMBL4190350.

Test system: Bacillus cereus
assay_procedure: Antimicrobial activity against Bacillus cereus incubated for 24 hrs by disc diffusion assay
Assay type: functional
Listed here are molecules together with their documented diameter of the inhibition zone (DIZ).
parameter: diameter of the inhibition zone (DIZ) (mm)

| mol_smiles | censoring_sign | recorded_measurement |
| --- | --- | --- |
| CC(=O)c1c(O)c2c3c(sc2[nH]c1=O)CCCCC3 | = | 9 |
| NNC(=O)c1c(NN=C2C(=O)NNC2=O)sc2c1CCCCC2 | < | 2 |
| CCOC(=O)C(=NNc1sc2c(c1C(=O)OCC)CCCCC2)C(=O)OCC | < | 2 |
| CCOC(=O)c1c(NC(=O)CC#N)sc2c1CCCCC2 | < | 2 |
| CCOC(=O)/C(=N/Nc1sc2c(c1C(=O)OCC)CCC2)C(C)=O | = | 7 |
| NNC(=O)c1c(NN=C2C(N)=NN=C2N)sc2c1CCCCC2 | = | 30 |

###

Tested on: HT-29
assay_procedure: Antitumor activity against human HT-29 cells assessed as inhibition of cell viability incubated for 48 hrs by MTT assay
Assay type: functional, cell-based
run_conditions: HT-29, 48 h
Label YES when IC50 < 60 µM; otherwise NO.

| mol_smiles | label_class |
| --- | --- |
| CCOC(=O)/C(C#N)=N/Nc1sc2c(c1C(=O)OCC)CCCCC2 | NO |
| CCOC(=O)c1c(NN=C(C#N)C#N)sc2c1CCCCC2 | YES |
| CC(=O)c1c(O)c2c3c(sc2[nH]c1=O)CCCCC3 | YES |
| CCOC(=O)/C(C#N)=N/Nc1sc2c(c1C(=O)OCC)CCC2 | NO |
| CCOC(=O)c1c(N/N=C(\C(C)=O)C(=O)c2ccccc2)sc2c1CCC2 | YES |
| CC(=O)C1(C(C)=O)N=Nc2sc3c(c2C1=O)CCCCC3 | YES |

###

System: Chromobacterium violaceum
assay_procedure: Inhibition of quorum sensing system in Chromobacterium violaceum ATCC 12472 assessed as inhibition of violacein production at 5 mg/mL incubated for 48 hrs
parameter: INH

| compound | parameter | recorded_measurement |
| --- | --- | --- |
| CCOC(=O)/C(C#N)=N/Nc1sc2c(c1C(=O)OCC)CCCCC2 | INH | 4 mm |
| CC(=O)C1(C(C)=O)N=Nc2sc3c(c2C1=O)CCCCC3 | INH | 3 mm |
| CCOC(=O)c1c(NN=C(C(C)=O)C(C)=O)sc2c1CCC2 | INH | 11 mm |
| CCOC(=O)c1c(NC(=O)CC(C)=O)sc2c1CCCCC2 | INH | < 2 mm |
| CCOC(=O)C1(C(C)=O)N=Nc2sc3c(c2C1=O)CCCCC3 (centres undefined) | INH | 3 mm |
| CCOC(=O)/C(=N/Nc1sc2c(c1C(=O)OCC)CCC2)C(C)=O | INH | 6 mm |
| Oc1cc(O)c2c(c1)O[C@H](c1ccc(O)c(O)c1)[C@@H](O)C2 | INH | 2 mm |
| NNC(=O)c1c(N/N=C2/C(=O)NN=C2N)sc2c1CCCCC2 | INH | 9 mm |
| CCOC(=O)c1c(N/N=C2\C(=O)NN=C2C)sc2c1CCC2 | INH | < 2 mm |
| CCOC(=O)C(=NNc1sc2c(c1C(=O)OCC)CCCCC2)C(=O)OCC | INH | < 2 mm |
| CC1=NN=C(C)C1=NNc1sc2c(c1C(=O)NN)CCCCC2 | INH | 5 mm |
| CCOC(=O)/C(C#N)=N/Nc1sc2c(c1C(=O)OCC)CCC2 | INH | 8 mm |
| Nc1nc2sc3c(c2c(=O)n1N)CCCCC3 | INH | < 2 mm |
| NNC(=O)c1c(NN=C2C(=O)NNC2=O)sc2c1CCC2 | INH | 8 mm |
| N#Cc1c(O)c2c3c(sc2[nH]c1=O)CCCCC3 | INH | < 2 mm |
| CC(=O)c1c(O)c2c3c(sc2[nH]c1=O)CCCCC3 | INH | 5 mm |
| NNC(=O)c1c(NN=C2C(=O)NNC2=O)sc2c1CCCCC2 | INH | 6 mm |
| CCOC(=O)c1c(NC(=O)CC#N)sc2c1CCCCC2 | INH | 2 mm |
| CCOC(=O)c1c(NN=C(C(C)=O)C(C)=O)sc2c1CCCCC2 | INH | 4 mm |
| CCOC(=O)c1c(N/N=C(\C(C)=O)C(=O)c2ccccc2)sc2c1CCCCC2 | INH | 3 mm |
| CC1=NNC(=O)/C1=N\Nc1sc2c(c1C(=O)NN)CCCCC2 | INH | 5 mm |
| NNC(=O)c1c(NN=C2C(N)=NN=C2N)sc2c1CCCCC2 | INH | 12 mm |
| CCOC(=O)c1c(N/N=C2\C(=O)NN=C2C)sc2c1CCCCC2 | INH | < 2 mm |
| CCOC(=O)c1c(-n2cnnn2)sc2c1CCCCC2 | INH | < 2 mm |
| CCOC(=O)C(=NNc1sc2c(c1C(=O)OCC)CCC2)C(=O)OCC | INH | < 2 mm |
| CCOC(=O)c1c(N/N=C(\C(C)=O)C(=O)c2ccccc2)sc2c1CCC2 | INH | 3 mm |
| CCOC(=O)/C(=N/Nc1sc2c(c1C(=O)OCC)CCCCC2)C(C)=O | INH | < 2 mm |
| CC(=O)C1(C(=O)c2ccccc2)N=Nc2sc3c(c2C1=O)CCCCC3 (centres undefined) | INH | 11 mm |
| CCOC(=O)c1c(NN=C(C#N)C#N)sc2c1CCCCC2 | INH | 9 mm |
